- Test system: Leishmania donovani axenic amastigote parasites
- experiment description: Leishmania donovani axenic amastigote proliferation assay
- Format: cell-based
- condition details: axenic amastigotes in vitro, read-out: L. donovani amastigotes EC50
pEC50: −log10 of the molar value.
experimental endpoint: pEC50

> print(dat)
                                    compound  experimental.endpoint  measured.value
 1  Cc1cnc2nc(-c3cc(NC(=O)C4CCO4)ccc3Cl)[nH]c2c1 (stereo not shown) [Compound 103]                  pEC50          < 4.60
 2  CC(C)OC(=O)Nc1ccc(Cl)c(-c2nc3ncc(-c4ccccc4NC(=O)CCN)cc3[nH]2)c1 [Compound 342]                  pEC50          < 4.60
 3  O=C(Nc1ccc(F)c(-c2nc3ncc(-c4cnn(C5CCNCC5)c4)cc3[nH]2)c1)N1CCCC1 [Compound 298]                  pEC50          < 4.60
 4  Cc1cnc2nc(-c3cc(NC(=O)N4CCNC4=O)ccc3Cl)[nH]c2c1 [Compound 246]                  pEC50          < 4.60
 5  CC(C)Cc1cnc2nc(-c3cc(NC(=O)c4ccco4)ccc3Cl)[nH]c2c1 [Compound 76]                  pEC50          < 4.60
 6  Cc1cnc2nc(-c3cc(NC(=O)c4ccc(C(F)(F)F)cc4)ccc3Cl)[nH]c2c1 [Compound 153]                  pEC50          < 4.60
 7  Cc1cnc2nc(-c3cc(NC(=O)Cc4ccncc4)ccc3Cl)[nH]c2c1 [Compound 148]                  pEC50          < 4.60
 8  Cc1cnc2nc(-c3cc(NC(=O)[C@@H]4CCCN4)ccc3F)[nH]c2c1 [Compound 273]                  pEC50          < 4.60
 9  Cc1cnc2nc(-c3cc(NC(=O)C4CCc5ccccc5O4)ccc3Cl)[nH]c2c1 (stereo not shown) [Compound 198]                  pEC50          < 4.60
10  COc1ccc(C(C)C(=O)Nc2ccc(Cl)c(-c3nc4ncc(C)cc4[nH]3)c2)cc1 (stereo not shown) [Compound 165]                  pEC50          < 4.61
11  Cc1cnc2nc(-c3cc(Nc4ccc(C#N)cn4)ccc3Cl)[nH]c2c1 [Compound 263]                  pEC50          < 4.60
12  Cc1cnc2nc(-c3cc(NC(=O)N(C)c4ccccc4)ccc3Cl)[nH]c2c1 [Compound 241]                  pEC50            4.85
13  Cc1cnc2nc(-c3cc(NC(=O)c4cccc5c4OCC5)ccc3Cl)[nH]c2c1 [Compound 180]                  pEC50          < 4.60
14  Cc1cnc2nc(-c3cc(NC(=O)c4cccc(Cl)c4)ccc3Cl)[nH]c2c1 [Compound 89]                  pEC50            5.43
15  O=C(Nc1ccc(Cl)c(-c2nc3ncc(Br)cc3[nH]2)c1)C1CCCC1 [Compound 374]                  pEC50            4.78
16  CNc1ccc(-c2cnc3nc(-c4cc(NC(=O)C5CCCC5)ccc4Cl)[nH]c3c2)cc1 [Compound 346]                  pEC50            5.60
